Molecular target: SARS-CoV-2 M^pro (3CL Protease, 3CL^pro) (Severe acute respiratory syndrome coronavirus 2, UniProt P0DTD1)
PROPERTY NAME: IC50 (nM)
Report the figure in nM without appending any unit label.

Dear colleague, I am looking for the recorded IC50 of the following compound: N=C(N/N=C/c1ccncc1)c1nonc1NCNc1nonc1C(=N)N/N=C/c1ccncc1 [M3]
13

---

Molecular target: human furin (Homo sapiens, UniProt P09958)
Construct: recombinant furin from BPS Bioscience furin protease assay kit
Sequence (P09958 108-715): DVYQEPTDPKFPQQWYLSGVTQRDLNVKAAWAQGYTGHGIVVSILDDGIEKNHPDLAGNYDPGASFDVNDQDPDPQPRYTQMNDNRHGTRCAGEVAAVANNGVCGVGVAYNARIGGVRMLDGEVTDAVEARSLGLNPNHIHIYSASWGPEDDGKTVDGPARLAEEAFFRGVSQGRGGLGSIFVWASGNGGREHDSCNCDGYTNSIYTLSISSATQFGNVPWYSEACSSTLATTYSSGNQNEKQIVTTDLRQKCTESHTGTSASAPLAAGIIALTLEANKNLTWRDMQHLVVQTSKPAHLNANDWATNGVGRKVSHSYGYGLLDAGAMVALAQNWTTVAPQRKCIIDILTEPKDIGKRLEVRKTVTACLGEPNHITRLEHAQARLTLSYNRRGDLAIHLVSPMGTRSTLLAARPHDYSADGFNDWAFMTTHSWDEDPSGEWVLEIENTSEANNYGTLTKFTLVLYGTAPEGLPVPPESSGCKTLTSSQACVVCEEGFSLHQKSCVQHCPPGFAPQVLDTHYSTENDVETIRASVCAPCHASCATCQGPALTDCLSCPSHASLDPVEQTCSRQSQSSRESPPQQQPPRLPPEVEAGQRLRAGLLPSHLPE
Assay: fluorogenic protease assay
Format: biochemical
PROPERTY NAME: pIC50
Note on units: pIC50 is unitless, being -log10 of a concentration expressed in mol/L.

Dear colleague, I am looking for the recorded pIC50 of the following compound: N=C(N/N=C/c1ccncc1)c1nonc1NCNc1nonc1C(=N)N/N=C/c1ccncc1 [M3]
7.05

Data credit: paper PMC8396542
